# METHOD NOTES: chemical genetic growth profiling, strain panel (AID 1159580);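 also: tested at 20 µM; growth read once vehicle control cultures reached saturation at 30 °C; 1 = growth at the plate median or of vehicle wells; lower values mean less growth of the strain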
# PROTOCOL CONDITIONS: S. cerevisiae deletion strains, growth OD, locus YNR049C, strain mso1, active compounds read low
The campaign covered roughly 5,500 compounds. About 2,000 (36%) were called active. About 18% were inconclusive and are not listed. The list shows a part of the results.
MEASUREMENT KIND: normalized growth
Please reply with the number alone, leaving off any unit.

compound="OC1C(O)C(O)C(O)C(O)C1O (stereo unspecified)" measurement_kind="normalized growth" measured_number=1
compound=O=C(O)c1cc(=O)c2ccccc2o1 measurement_kind="normalized growth" measured_number=0.982
compound=O=C(O)/C=C(\CC(=O)O)C(=O)O measurement_kind="normalized growth" measured_number=0.992
compound=CN(C)CCC=C1c2ccccc2CCc2ccccc21 measurement_kind="normalized growth" measured_number=0.974

# lookup: normalized growth of CCCCCCc1ccc(O)cc1O 0.978

Report normalized growth for NCCc1ccc(O)cc1 please. 0.98

###

# METHOD NOTES: chemical genetic growth profiling, strain panel (AID 1159580);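 also: tested at 20 µM; growth read once vehicle control cultures reached saturation at 30 °C; 1 = growth at the plate median or of vehicle wells; lower values mean less growth of the strain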
# PROTOCOL CONDITIONS: S. cerevisiae deletion strains, growth OD, locus YOR136W, strain idh2
Among all 5,500 compounds or so, about 2,000 (36%) were called active. Inconclusive results (about 18%) are left out. Rule as the data show it: active = normalized growth mostly below about 0.91 (no sharp cut-off); inconclusive = no clear call, values can overlap the other calls; inactive = mostly above about 0.92. Some of the results follow.
Assign a class; possible classes are 1.0 for active, 0.0 for inactive

compound=O=C(O)c1nc2cc(Cl)c(Cl)cc2[nH]c1=O class_name=0.0

Dear all, I need the recorded test outcome for C=C1C(N)CC2CC1C2(C)C (stereo not drawn) , thank you. 0.0

Record request — test call for C[n+]1cc2c3c(ccc2c2ccc4cc5c(cc4c21)OCO5)OCO3 1.0

Each compound tested received a call. Report the one for CC1(C)O[C@@H]2CC3C4C[C@H](F)C5=CC(=O)C=CC5(C)C4C(O)CC3(C)[C@]2(C(=O)CO)O1 (stereo partly drawn) . 0.0

GET /call?item= Cn1c(=O)c2[nH]c(C3CCCC3)nc2n(C)c1=O returns the recorded outcome of this test. 0.0

Could you please tell me the result logged for C#CCOS(=O)OC1CCCCC1Oc1ccc(C(C)(C)C)cc1 (stereo not drawn) in this assay? 0.0

Which outcome was assigned to O=c1oc2ccccc2c(O)c1Cc1c(O)c2ccccc2oc1=O in this test? 0.0

# fetch the recorded call for Cc1cc(=O)c2c(O)c3c(cc2o1)OC(C)(C)CC3 here 0.0

###

# METHOD NOTES: chemical genetic growth profiling, strain panel (AID 1159580);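 also: tested at 20 µM; growth read once vehicle control cultures reached saturation at 30 °C; 1 = growth at the plate median or of vehicle wells; lower values mean less growth of the strain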
# PROTOCOL CONDITIONS: S. cerevisiae deletion strains, growth OD, locus YMR223W, strain ubp8
Among all 5,500 compounds or so, about 2,000 (36%) were called active. About 18% were inconclusive and are not listed. No stated cut-off is given here; in the data, active means normalized growth mostly below about 0.91 (no sharp cut-off); inconclusive means no clear call, values can overlap the other calls; inactive means mostly above about 0.92. Some of the results follow.
Your answer must be one of the following: true (1) (active), false (0) (inactive)

// known answers, use as guide
compound=CCn1cc(C(=O)O)c(=O)c2cc(F)c(N3CCNCC3)cc21 class_name="false (0)"
compound=COc1ccc(-c2cc(=O)c3ccccc3o2)cc1 class_name="true (1)"
compound=CC(C)Oc1ccc2c(=O)cc(-c3ccccc3)oc2c1 class_name="true (1)"
compound=COc1ccc(-c2cc(=O)c3c(OC)cccc3o2)cc1 class_name="false (0)"
compound="COc1cc([C@@H]2c3cc4c(cc3C(O[C@@H]3O[C@@H]5CO[C@@H](c6cccs6)OC5[C@H](O)[C@H]3O)C3COC(=O)[C@@H]32)OCO4)cc(OC)c1O (stereo partly specified)" class_name="false (0)"
compound="CC1(C)O[C@@H]2CC3C4CCC5=CC(=O)C=C[C@]5(C)[C@@]4(F)[C@@H](O)C[C@]3(C)[C@]2(C(=O)CO)O1 (stereo partly specified)" class_name="false (0)"
compound=C[n+]1cc2c3c(ccc2c2ccc4cc5c(cc4c21)OCO5)OCO3 class_name="true (1)"
compound=CC1=NCCc2c1[nH]c1cc(O)ccc21 class_name="false (0)"
compound=CCCN1C[C@H](CSC)C[C@@H]2c3cccc4[nH]cc(c34)C[C@H]21 class_name="false (0)"
compound="C[C@@H]1CC[C@@]2(OC1)OC1C(O)C3C4CC[C@H]5C[C@H](O[C@@H]6O[C@H](CO)[C@H](O[C@@H]7O[C@H](CO)[C@@H](O)[C@H](O[C@@H]8OC[C@@H](O)[C@H](O)[C@H]8O)[C@H]7O[C@@H]7O[C@H](CO)[C@H](O)[C@H](O[C@@H]8O[C@H](CO)[C@@H](O)[C@H](O)[C@H]8O)[C@H]7O)[C@H](O)[C@H]6O)[C@H](O)C[C@]5(C)C4CC[C@]3(C)C1[C@@H]2C (stereo partly specified)" class_name="true (1)"

Status in this test for CCCCCCCCCCCCCCCC[n+]1ccccc1 ? true (1)
